experiment: yeast display, Sf9 membrane polyspecificity reagent, FACS + sequencing; frameworks hold sequencing errors
PROPERTY: polyreactivity (PSR sort gate)

Query :: State its polyreactivity (PSR sort gate) for this sequence: QVQLVESGGGLVQAGGSLRLSCAASGSIFTYNAMGWYRQAPGKERELVATISDGGSTYYADSVKGRFTISRDNAKNTVYLQMNSLKPEDTAVYYCNKDRVSVRYEYWGQGTQVTVSS
Result :: low polyreactivity

Query :: Name the recorded polyreactivity (PSR sort gate) of the sequence listed here: QVHLVDSAGGLVQAGGNLSLSCEASGSIFRAYAMGWYRQAQGKERELVADISRSGGSTYYAESVKGRFTISRDNAKNTVYLQRNSLKPEDTAVSYGAAVFYLFSNLYGEYDYWGQGTQVTVSS
Result :: low polyreactivity

Query :: For the sequence QFQLVESGGGLVQAGGSLRLSCAASGFTFDGYAMGWYRQAPGKERELVAAISDSGDSTYYADSVKGRFTISRDNAKITVYLQMNSLKPEDTAVYYCAAGLGYYWSDYFAYDYWGQGTQVTVSS , give its measured polyreactivity (PSR sort gate) value.
Result :: low polyreactivity
